- System: DU-145
- method_description: cells
- Type: functional, cell-based
- test_context: Homo sapiens
- Description: Antiproliferative activity against human DU-145 cells assessed as inhibition of cell growth incubated for 3 to 5 days by CCK-8 assay
pIC50: recorded values
Note on units: pIC50 is unitless, being -log10 of a concentration expressed in mol/L.

Below: 2 molecules and their reported pIC50.
[[record]]
chem_smiles = "N#CC(C#N)=C1C=C(/C=C/c2ccc(O)cc2)Oc2ccc(O)cc21"
measured_quantity = "pIC50"
recorded_number = 6.57

[[record]]
chem_smiles = "N#CC(C#N)=C1C=C(/C=C/c2ccc(O)c(NC(=O)CCCCCCC(=O)NO)c2)Oc2ccc(O)cc21"
measured_quantity = "pIC50"
recorded_number = 4.82


Next molecule, please.
Which pIC50 reading was recorded for the molecule N#CC(C#N)=C1C=C(/C=C/c2ccc(O)c(NC(=O)CCCCCCC(=O)NO)c2)Oc2ccccc21 ?
6.02
